- Protocol Notes: Solubility in organic solvents (gravimetric, saturated solution from one-day slurry)
- Assay type: physicochemical
- Settings: organic solvent or mixture, thermodynamic from solid; methanol, 22° C.; Compound A from Example 6; read-out: solubility (mg per ml methanol)
Endpoint Label: solubility at 1 day (mg/mL)
Write the value in mg/mL as a bare number.

Request: Give the reported solubility at 1 day for this molecule. CO/N=C(\N)c1ccc(CNC(=O)[C@@H]2CCN2C(=O)[C@H](O)c2cc(Cl)cc(OC(F)F)c2)cc1
Response: 655

---

- Protocol Notes: Solubility in organic solvents (gravimetric, saturated solution from one-day slurry)
- Assay type: physicochemical
- Settings: organic solvent or mixture, thermodynamic from solid; isopropanol, 22° C.; Compound B from Example 2 or Compound A anhydrate from Example 6; read-out: solubility (mg per ml isopropanol)
- Procedure: An excess of Compound A from Example 3 above was slurried in ethyl acetate for one day. A proportion of the saturated solution was then withdrawn through a 0.5 micrometer filter to a pre-weighted E-flask. […] The weight of the solution, the weight of dry substance, the weight of solvent and the volume of solvent were determined (using the density of ethyl acetate at 22° C.=0.90 g/ml). […]
Endpoint Label: solubility at 1 day (µg/mL)
Write the value in µg/mL as a bare number.

> print(dat)
                                smiles.code  value.unit  test.value
1  N/C(=N\O)c1ccc(CNC(=O)[C@@H]2CCN2C(=O)[C@H](O)c2cc(Cl)cc(OC(F)F)c2)cc1       µg/mL        3000

Kindly review the next molecule as well.
Request: Give the reported solubility at 1 day for this molecule. CO/N=C(\N)c1ccc(CNC(=O)[C@@H]2CCN2C(=O)[C@H](O)c2cc(Cl)cc(OC(F)F)c2)cc1
Response: 15000
